target.entity: hERG (KCNH2) (Homo sapiens)
Sequence (Q12809 whole entry): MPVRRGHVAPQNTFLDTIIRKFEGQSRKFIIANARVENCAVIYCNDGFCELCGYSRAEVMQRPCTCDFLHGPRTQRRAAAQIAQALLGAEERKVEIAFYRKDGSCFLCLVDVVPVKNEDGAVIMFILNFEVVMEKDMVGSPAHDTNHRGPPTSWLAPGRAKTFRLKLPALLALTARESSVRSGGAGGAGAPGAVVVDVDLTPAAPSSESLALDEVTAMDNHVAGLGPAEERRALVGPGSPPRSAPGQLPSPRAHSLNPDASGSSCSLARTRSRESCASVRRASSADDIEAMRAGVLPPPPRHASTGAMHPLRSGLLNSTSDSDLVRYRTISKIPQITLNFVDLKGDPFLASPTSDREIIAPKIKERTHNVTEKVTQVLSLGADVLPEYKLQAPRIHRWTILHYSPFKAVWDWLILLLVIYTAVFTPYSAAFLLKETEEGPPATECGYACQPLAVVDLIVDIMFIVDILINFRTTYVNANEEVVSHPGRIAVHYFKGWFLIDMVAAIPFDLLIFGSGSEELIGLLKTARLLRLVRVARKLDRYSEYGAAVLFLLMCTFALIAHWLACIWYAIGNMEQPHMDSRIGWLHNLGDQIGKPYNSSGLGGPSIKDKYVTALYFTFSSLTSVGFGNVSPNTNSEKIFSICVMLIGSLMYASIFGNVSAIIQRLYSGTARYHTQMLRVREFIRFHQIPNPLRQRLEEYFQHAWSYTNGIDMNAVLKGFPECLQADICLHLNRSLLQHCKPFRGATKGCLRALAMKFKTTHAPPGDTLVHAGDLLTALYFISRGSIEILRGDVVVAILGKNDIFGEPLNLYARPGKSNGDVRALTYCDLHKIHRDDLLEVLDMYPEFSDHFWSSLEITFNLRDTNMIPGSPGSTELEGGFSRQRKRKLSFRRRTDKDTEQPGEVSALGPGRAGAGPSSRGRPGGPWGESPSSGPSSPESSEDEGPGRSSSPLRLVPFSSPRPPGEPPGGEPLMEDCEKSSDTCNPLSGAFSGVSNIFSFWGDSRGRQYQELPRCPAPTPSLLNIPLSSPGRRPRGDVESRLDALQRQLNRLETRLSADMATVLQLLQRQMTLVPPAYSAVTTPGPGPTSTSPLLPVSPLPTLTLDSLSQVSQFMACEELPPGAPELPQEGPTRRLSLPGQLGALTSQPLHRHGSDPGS
protocol.notes: Inhibition of human ERG expressed in HEK293 cells at 0.1 uM after 5 mins at -80 mV holding potential by patch clamp assay
Format: cell-based
run.parameters: HEK293 cells expressing human ERG
Assign rule met whenever inhibition at 5 min, 0.1 µM does not fall below 6%; assign rule not met whenever it does.

Confirm if inhibition at 5 min, 0.1 µM reported for the molecule COc1ccc2c(c1)CN(C(=O)N1CCCCC1)CCS2 is 6% or above.
rule not met

Confirm if inhibition at 5 min, 0.1 µM reported for the molecule COc1ccc2c(c1)CN(C(=O)C(=O)O)CCS2(=O)=O is 6% or above.
rule not met

Confirm if inhibition at 5 min, 0.1 µM reported for the molecule COc1ccc2c(c1)CN(C(=O)N1CCN(Cc3ccc4c(c3)OCO4)CC1)CCS2 is 6% or above.
rule met

Confirm if inhibition at 5 min, 0.1 µM reported for the molecule COc1ccc2c(c1)CN(C(=O)c1ccc(N=[N+]=[N-])cc1O)CCS2 is 6% or above.
rule not met

Confirm if inhibition at 5 min, 0.1 µM reported for the molecule COc1ccc2c(c1)CN(C)CCS2 is 6% or above.
rule not met

Confirm if inhibition at 5 min, 0.1 µM reported for the molecule O=C(N1CCCCC1)N1CCSc2ccccc2C1 is 6% or above.
rule not met

Confirm if inhibition at 5 min, 0.1 µM reported for the molecule O=C(O)C(=O)N1CCSc2ccccc2C1 is 6% or above.
rule met

Confirm if inhibition at 5 min, 0.1 µM reported for the molecule COC(=O)C(=O)N1CCSc2ccc(OC)cc2C1 is 6% or above.
rule met

Confirm if inhibition at 5 min, 0.1 µM reported for the molecule O=C(NO)N1CCSc2ccccc2C1 is 6% or above.
rule not met
